Target: Dual specificity protein kinase CLK4 (Homo sapiens) (UniProt Q9HAZ1)
Sequence (Q9HAZ1 whole entry, looked up): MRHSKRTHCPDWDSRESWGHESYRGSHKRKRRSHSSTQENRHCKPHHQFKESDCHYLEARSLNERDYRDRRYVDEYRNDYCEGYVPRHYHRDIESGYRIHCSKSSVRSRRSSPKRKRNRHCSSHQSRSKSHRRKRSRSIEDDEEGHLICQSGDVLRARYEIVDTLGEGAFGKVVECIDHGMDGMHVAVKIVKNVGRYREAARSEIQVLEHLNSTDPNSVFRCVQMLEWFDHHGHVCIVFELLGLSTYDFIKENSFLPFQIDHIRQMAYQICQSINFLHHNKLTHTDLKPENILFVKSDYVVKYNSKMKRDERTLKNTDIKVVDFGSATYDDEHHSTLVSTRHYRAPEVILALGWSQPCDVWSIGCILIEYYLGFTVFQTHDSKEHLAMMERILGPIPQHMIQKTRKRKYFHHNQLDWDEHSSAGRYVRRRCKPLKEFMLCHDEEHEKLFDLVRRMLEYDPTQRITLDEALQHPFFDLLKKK
Assay: qHTS Assay for Inhibitors of CDC-like Kinase 4 (ADP-Glo Assay) (AID 1771); also: nearly all actives have a fitted effect of over 70% in size
Settings: recombinant CLK4, ADP-Glo luminescence; series mostly up to 80 µM
Results filed as inconclusive are left out. Calls of active or inactive are those of the source. Calls follow the shape of the dose curve; as a rule, active = well fitted inhibition curve with a large enough effect; inconclusive = small, poorly fitted or top-dose-only effect; inactive = flat fitted curve, though single readings scatter.
Allowed answers: active, inactive

So what was the verdict on COCCn1c(=O)c(-c2cccc(C#N)c2)nc2cnc(Oc3ccc(OC)cc3)nc21 in this test?
inactive

So what was the verdict on CN(Cc1ccco1)c1nc(-c2ccoc2)nc2ccccc12 in this test?
inactive

So what was the verdict on Cn1c(=O)c(-c2ccc(Cl)cc2)nc2cnc(N3CCNCC3)nc21 in this test?
inactive

So what was the verdict on COc1ccc(CNc2ccnc(-c3c(C)noc3C)n2)c(OC)c1 in this test?
inactive

So what was the verdict on CN1CCN(c2ncc3nc(-c4cn(C)c5ccccc45)c(=O)n(Cc4cccs4)c3n2)CC1 in this test?
inactive

So what was the verdict on CN(C)c1ccc(-c2ccc3ncnc(N(C)Cc4ccco4)c3c2)cc1 in this test?
active

* * *

Test: AP1 Signaling Pathway (AID 357);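 also: ME-180 reporter cells stimulated with EGF at its EC50 level; % is scaled to controls: 0 for no effect and ±100 for the full control effect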
Conditions: ME-180 (cervical carcinoma) AP-1-bla reporter, EGF-induced, beta-lactamase ratio, 5 h; at 38 µM (top of the series)
Procedure: NCGC Assay Overview: Activator protein-1 (AP-1), a transcription factor, plays an important role in tumor genesis by regulating genes involved in cell proliferation, differentiation, apoptosis, and angiogenesis. AP-1 activity is induced by a complex network of signaling pathways that involves extracellular signals, such as growth factors. […] Library compounds were measured for their ability to modulate positively or negatively the action of EC50 EGF on reporter gene activity. […]
Results filed as inconclusive are left out.
endpoint.name: activity change, negative = inhibition (%)
Report the figure in % without appending any unit label.

// query activity change, negative = inhibition value for entry C[C@]12CCC3c4ccc(O)cc4CCC3[C@@H]1CCC2=O (some centres not stated)
-3.57

// query activity change, negative = inhibition value for entry CN1[C@@H]2CC[C@H]1CC(OC(=O)[C@@H](O)c1ccccc1)C2 (some centres not stated)
-8.54

// query activity change, negative = inhibition value for entry O=C(c1ccccc1)c1ccc2n1CC[C@H]2C(=O)O
-1.3

// query activity change, negative = inhibition value for entry N[C@H](C(=O)N[C@@H]1C(=O)N2C(C(=O)O)=C(Cl)CS[C@@H]12)c1ccccc1
-4.53

// query activity change, negative = inhibition value for entry CCN(CC)CCC[C@H](C)Nc1c2ccc(Cl)cc2nc2ccc(OC)cc12
21.9

// query activity change, negative = inhibition value for entry Cc1cccc(C)c1OC[C@H](C)N
1.06

// query activity change, negative = inhibition value for entry O=C(O)CNC(=O)[C@@H](CS)Cc1ccccc1
-1.37

// query activity change, negative = inhibition value for entry CCCN(CCC)C(=O)[C@@H](CCC(=O)O)NC(=O)c1ccccc1
-3.39

// query activity change, negative = inhibition value for entry CN(C)CCO[C@](C)(c1ccccc1)c1ccccn1
3.93

// query activity change, negative = inhibition value for entry CC(C)(C)NC[C@H](O)c1cc(O)cc(O)c1
-8.4

// query activity change, negative = inhibition value for entry CN1Cc2c(N)cccc2[C@H](c2ccccc2)C1
-7.55

// query activity change, negative = inhibition value for entry OCCN1CCN(CC/C=C2\c3ccccc3Sc3ccc(C(F)(F)F)cc32)CC1
29.4

// query activity change, negative = inhibition value for entry C[C@@]12CCC(=O)C=C1CC[C@@H]1[C@@H]2[C@H](O)C[C@]2(C)[C@@H]1CC[C@]2(O)C(=O)CO
1.86

// query activity change, negative = inhibition value for entry CN1C(=O)CC[C@@H]1c1cccnc1
-5.74

// query activity change, negative = inhibition value for entry C[C@@]12C[C@@H](O)[C@H]3[C@@H](CCC4=CC(=O)CC[C@]43C)[C@H]1CC[C@H]2C(=O)CO
-3.18

// query activity change, negative = inhibition value for entry C[C@@H](COc1ccccc1)N(CCCl)Cc1ccccc1
0.967

// query activity change, negative = inhibition value for entry O[C@@](CCN1CCCCC1)(c1ccccc1)C1CCCCC1
17.8

// query activity change, negative = inhibition value for entry CC1=C(C(=O)O)N2C(=O)[C@@H](NC(=O)[C@@H](N)c3ccccc3)[C@@H]2SC1
11

// query activity change, negative = inhibition value for entry CN1CCc2cccc3c2[C@@H]1Cc1ccc(O)c(O)c1-3
-26.6

// query activity change, negative = inhibition value for entry CN(C)CC[C@@H](c1ccccc1)c1ccccn1
8.55

// query activity change, negative = inhibition value for entry CC(=O)OCC1=C(C(=O)O)N2C(=O)[C@@H](NC(=O)CSc3ccncc3)[C@@H]2SC1
11

// query activity change, negative = inhibition value for entry C[C@@H](C[N+](C)(C)C)OC(N)=O
13.3
